TESTED_SYSTEM: Recombinant mouse PD-L1 (Mus musculus)
Construct: Fc (Fc chimera); purchased R&D Systems 1019-B7-100
Sequence (Q9EP73 with tags, fused parts or gaps limits assumed): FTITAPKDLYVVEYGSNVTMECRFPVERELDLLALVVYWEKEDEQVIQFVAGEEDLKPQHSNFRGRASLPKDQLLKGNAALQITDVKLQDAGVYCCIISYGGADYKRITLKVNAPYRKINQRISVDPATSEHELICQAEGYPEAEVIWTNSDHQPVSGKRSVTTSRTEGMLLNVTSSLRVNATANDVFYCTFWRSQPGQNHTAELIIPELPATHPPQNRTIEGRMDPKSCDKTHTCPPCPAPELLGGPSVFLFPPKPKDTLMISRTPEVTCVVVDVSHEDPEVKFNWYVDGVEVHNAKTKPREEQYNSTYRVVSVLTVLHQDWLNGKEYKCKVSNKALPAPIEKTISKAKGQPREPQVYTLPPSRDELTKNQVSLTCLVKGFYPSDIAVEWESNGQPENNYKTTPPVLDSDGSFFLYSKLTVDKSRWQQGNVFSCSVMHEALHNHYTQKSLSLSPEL
METHOD_NOTES: Rescue of mouse splenocyte proliferation in the presence of recombinant PD-L1/PD-L2 (CFSE proliferation assay)
Format: cell-based
REPORTED_CONDITIONS: 100 nM compound; anti-CD3/CD28 stimulated mouse splenocytes + PD-L1; 72 h; normalised to stimulated splenocyte proliferation as 100%; read-out: Percent rescue of splenocyte proliferation (@100 nM compound concentration)
Please mark yes if the recorded activation at 0.1 µM is equal to or greater than 60%, and no if it falls below.

| MOLECULE | CLASS_NAME |
| --- | --- |
| CC(O)[C@H](N)c1nnc([C@H](CC(N)=O)NC(=O)N[C@@H](CO)C(=O)O)o1 (stereo partly shown) [Compound 10] | no |
| CC(O)[C@H](NC(=O)N[C@@H](CCC(N)=O)c1nnc([C@@H](N)C(C)O)o1)C(=O)O (stereo partly shown) [Compound 13] | yes |
| CC(O)[C@H](N)c1nnc([C@H](CCC(N)=O)NC(=O)N[C@@H](CO)C(=O)O)o1 (stereo partly shown) [Compound 12] | yes |
| NC(=O)CC[C@H](NC(=O)N[C@@H](CO)C(=O)O)c1nnc([C@@H](N)CO)o1 [Compound 17] | no |
| CC(O)[C@H](NC(=O)N[C@@H](CCC(=O)O)c1nnc([C@@H](N)CO)o1)C(=O)O (stereo partly shown) [Compound 15] | yes |
| CC(O)[C@H](NC(=O)N[C@@H](CC(=O)O)c1nnc([C@@H](N)CO)o1)C(=O)O (stereo partly shown) [Compound 18] | yes |
| NC(=O)C[C@H](NC(=O)N[C@@H](CO)C(=O)O)c1nnc([C@@H](N)CO)o1 [Compound 14] | no |
| NC(=O)C[C@H](N)c1nnc([C@@H](N)CO)s1 [Compound 3] | no |
| CC(O)[C@H](NC(=O)N[C@@H](CC(N)=O)c1nnc([C@@H](N)CO)o1)C(=O)O (stereo partly shown) [Compound 2] | yes |
| CC(O)[C@H](NC(=O)N[C@@H](CCC(N)=O)c1nnc([C@@H](N)CO)o1)C(=O)O (stereo partly shown) [Compound 16] | no |
| CC(O)[C@H](NC(=O)N[C@@H](CC(N)=O)c1nnc([C@@H](N)C(C)O)o1)C(=O)O (stereo partly shown) [Compound 9] | yes |
